Tested on: A549 NSCLC
assayMethodText: NCI tumour cell line growth inhibition, 48 h; in the data active means GI50 below about 0.43 µM; inactive means the rest
Pick one and only one: active, inactive

Take a look at these entries with their results.
IN: Hello, I am checking results. What call was entered for Cn1cc(C2=C(c3c4n(c5ccccc35)CCN(C(N)=S)C4)C(=O)NC2=O)c2ccccc21 ?
OUT: inactive

IN: Hello, I am checking results. What call was entered for O=C1Nc2ccccc2C1(c1c[nH]c2ccccc12)c1c[nH]c2ccccc12 ?
OUT: inactive

IN: Hello, I am checking results. What call was entered for Cc1cccc(NC2=C(Cl)C(=O)N(Cc3ccc(Cl)cc3)C2=O)c1 ?
OUT: inactive

IN: Hello, I am checking results. What call was entered for CCCCCCCCCCCC[C@H](O)[C@H]1CC[C@H]([C@H](O)CCCC[C@H](O)CCCCC[C@@H](O)CC2=C[C@H](C)OC2=O)O1 ?
OUT: inactive

---
IN: Hello, I am checking results. What call was entered for O=[N+]([O-])c1ccc2scc3c4ccccc4nc-3c2c1 ?
OUT: inactive

IN: Hello, I am checking results. What call was entered for COc1cc(OC)cc(C2C(C#N)=C(N)Oc3c2ccc2ccc(O)cc32)c1 (centres undefined) ?
OUT: active

IN: Hello, I am checking results. What call was entered for COc1cc(C(C)c2ccc3c(ccn3C)c2)cc(OC)c1OC (centres undefined) ?
OUT: active

IN: Hello, I am checking results. What call was entered for COc1ccc2c(c1OC)CO[C@@H]2[C@H]1c2c(c(Br)c3c(c2OC)OCO3)CCN1C ?
OUT: inactive

IN: Hello, I am checking results. What call was entered for Cc1ccc(C)c(COc2cc(NC(=O)c3ccc4c(c3)OCO4)ccc2N(C)S(C)(=O)=O)c1 ?
OUT: active

###

System: MDA-MB-435
Pick one and only one: active, inactive

Take a look at these entries with their results.
IN: Hello, I am checking results. What call was entered for COc1ccc2c(c1OC)CO[C@@H]2[C@H]1c2c(c(Br)c3c(c2OC)OCO3)CCN1C ?
OUT: inactive

IN: Hello, I am checking results. What call was entered for O=[N+]([O-])c1ccc2scc3c4ccccc4nc-3c2c1 ?
OUT: inactive

Next compound, please.
IN: Hello, I am checking results. What call was entered for Cn1cc(C2=C(c3c4n(c5ccccc35)CCN(C(N)=S)C4)C(=O)NC2=O)c2ccccc21 ?
OUT: inactive

###

Tested on: RXF 393 renal
assayMethodText: NCI tumour cell line growth inhibition, 48 h
This section presents molecules with their documented TGI values.

Solved cases below.
IN: Provide measured TGI value, entry: O=C1OC(c2ccccc2)=N/C1=C\c1ccc(F)cc1
OUT: > 100 µM

IN: Provide measured TGI value, entry: N#C/C(=C\c1cc(Br)c(O)c(Br)c1)c1ccccn1
OUT: > 100 µM

IN: Provide measured TGI value, entry: O=S(=O)(c1ccccc1)C1CN2OC1(S(=O)(=O)c1ccccc1)CC21CCCCC1 (stereo not drawn)
OUT: > 100 µM

IN: Provide measured TGI value, entry: CN(C)CCNC(=O)c1cc([N+](=O)[O-])cn1C
OUT: > 100 µM

IN: Provide measured TGI value, entry: O=c1[nH]c2ccc(N=Cc3c(O)[nH]c4ccccc34)cc2[nH]1
OUT: > 25 µM

---
IN: Provide measured TGI value, entry: COc1cc2oc(-c3ccc4c(c3)OCO4)c(OC)c(=O)c2c(OC)c1OC
OUT: > 100 µM

IN: Provide measured TGI value, entry: N.N.NCCCCCCN.O=C([O-])CCl.O=C([O-])CCl.O=C([O-])CCl.O=C([O-])CCl.[Pt+4].[Pt+4]
OUT: > 50 µM

IN: Provide measured TGI value, entry: CN(C)c1ccc(/C=N/N=C2\C(=O)Nc3c(Cl)cc(Cl)cc32)cc1
OUT: > 100 µM

Reference source for all entries: PubChem BioAssay (NCI)
